system: HEK-293T; assay: Multiplex assay against HEK293T; format: toxicity, cell-based; conditions: human, 24 h, 10 µM, compound concentration 10 uM, replicate 1
Labelling field: enter Fulfilled if recorded Population Mitochondria Different-Phenotype (%) is less than 90%. Enter Not fulfilled if it equals or exceeds that cut-off.

compound	group
CC(C)Oc1ccccc1C(=O)Nc1ccccc1C(=O)Nc1cccc(S(=O)(=O)C(F)(F)F)c1	Not fulfilled
COc1cc2ncn(-c3cc(OCc4ccccc4C(F)(F)F)c(C(N)=O)s3)c2cc1OC [GW843682X]	Not fulfilled
O=c1cc(N2CCOCC2)oc2c(-c3cccc4c3sc3ccccc34)cccc12	Not fulfilled
O=C(c1cc2c(cc1F)OC(c1ccc(F)cc1)(c1ccc(Cl)cc1Cl)O2)N1CCOCC1 (centres undefined)	Fulfilled
Cc1c[nH]c2nccc(Oc3c(F)cc(Nc4cc(Cl)nc(N)n4)cc3F)c12 [BAY-549]	Fulfilled

Item Cc1cccc(CN2CCN(C(c3ccccc3)c3ccc(Cl)cc3)CC2)c1.Cl.Cl (centres undefined) : Population Mitochondria Different-Phenotype (%) beneath 90%, strictly?
Not fulfilled

Item CNC(=O)Nc1ccc(-c2nc(N3CC4CCC(C3)O4)c3cnn(C4CCC5(CC4)OCCO5)c3n2)cc1 : Population Mitochondria Different-Phenotype (%) beneath 90%, strictly?
Fulfilled

Item COc1cc(Nc2nccc(-c3cnn4nc(OC)ccc34)n2)cc(C(F)(F)F)c1 : Population Mitochondria Different-Phenotype (%) beneath 90%, strictly?
Fulfilled

Item CC(C)(C)NC[C@H](O)COc1nsnc1N1CCOCC1 [TIMOLOL] : Population Mitochondria Different-Phenotype (%) beneath 90%, strictly?
Fulfilled

----------
Reported Growth Rate by item:
test system: U2OS; experiment: Incucyte cell viability with U2OS; format: toxicity, cell-based; details: human, 6 h, 10 µM, compound concentration 10 uM, replicate number 1, timepoint 6 hours; also: filed as whole numbers so only -1 and 0 and 1 occur
Reply with just the number.

Worked cases, Growth Rate given:
smiles	target_under_test	Growth Rate
C[C@]12CC[C@@H]3c4ccc(O)cc4CC[C@H]3[C@@H]1CC[C@@H]2O	U2OS	0
C=CC(=O)Nc1cccc(Sc2nc(Nc3ccc(N4CCN(C)CC4)cc3)ncc2Cl)c1	U2OS	0
CN(C)C(=O)Cn1cc(-c2nc([C@@](C)(c3ccc(-c4cnc(N)nc4)cc3)C3CC3)no2)cn1	U2OS	0
Cc1cc([C@@H](C)Nc2ccccc2C(=O)O)c2nc(N3CCOCC3)cc(=O)n2c1	U2OS	0
CNC(=O)Nc1ccc(-c2nc(N3CC4CCC(C3)O4)c3cnn(C4CCC5(CC4)OCCO5)c3n2)cc1	U2OS	1

Recall the recorded Growth Rate for CNC(=O)c1ccc(Nc2ncc(C(F)(F)F)c(NCc3nccnc3N(C)S(C)(=O)=O)n2)cc1 with U2OS and state it.
1

Recall the recorded Growth Rate for COc1ccc(S(=O)(=O)N2c3ccc(Cl)cc3[C@](O)(c3ccccc3Cl)[C@@H]2C(=O)N2CCC[C@H]2C(N)=O)cc1OC with U2OS and state it.
1

Recall the recorded Growth Rate for O=C(NCC(=O)N1CCCC1)Nc1ccc2cnccc2c1 with U2OS and state it.
1

----------
tested on: HEK-293T; assay: Multiplex assay against HEK293T; assay type: toxicity, cell-based; settings: human, 12 h, 10 µM, compound concentration 10 uM, replicate 2
Classify as follows. Reported Total Cell Count greater than or equal to 200: Yes. Reported Total Cell Count below: No.

Total Cell Count >= 200 for CCCSc1nc(N[C@@H]2C[C@H]2c2ccc(F)c(F)c2)c2nnn([C@@H]3C[C@H](OCCO)[C@@H](O)[C@H]3O)c2n1 ?
No

Total Cell Count >= 200 for CC(C)(C)NC[C@H](O)COc1nsnc1N1CCOCC1 ?
Yes

Total Cell Count >= 200 for C=CC(=O)Nc1cccc(Oc2nc(Nc3ccc(N4CCN(C)CC4)cc3OC)ncc2Cl)c1 ?
Yes

Total Cell Count >= 200 for O=C(c1cc2c(cc1F)OC(c1ccc(F)cc1)(c1ccc(Cl)cc1Cl)O2)N1CCOCC1 (configuration not stated) ?
No

Total Cell Count >= 200 for O=c1cc(N2CCOCC2)oc2c(-c3cccc4c3sc3ccccc34)cccc12 ?
No

Total Cell Count >= 200 for CC(C)c1noc(N2CCC(COc3ccc(-c4ccc(S(C)(=O)=O)cc4)nc3)CC2)n1 ?
No

Total Cell Count >= 200 for C=CC(=O)Nc1cccc(Sc2nc(Nc3ccc(N4CCN(C)CC4)cc3)ncc2Cl)c1 ?
Yes

Total Cell Count >= 200 for CNC(=O)Nc1ccc(-c2nc(N3CC4CCC(C3)O4)c3cnn(C4CCC5(CC4)OCCO5)c3n2)cc1 ?
No

Total Cell Count >= 200 for CC(C)NC(=O)N1CC[C@H](NC2=Nc3cc(F)ccc3N(CC(F)F)c3ccc(Cl)cc32)C1 ?
No

Total Cell Count >= 200 for CCc1ccc(OCc2ccccc2C(=O)Nc2ccc3nc(C)cc(N)c3c2)cc1.Cl ?
No

Total Cell Count >= 200 for C=CC(=O)Nc1ccc2[nH]c(=O)n(C3CCN(Cc4ccc(-c5nc6cc[nH]c(=O)c6cc5-c5ccccc5)cc4)CC3)c2c1 ?
Yes

Total Cell Count >= 200 for Cc1ccccc1C(c1ccccc1C)N1C2CCC1CC(O)(c1ccccc1)C2 (configuration not stated) ?
Yes

Total Cell Count >= 200 for COc1ccccc1CN[C@H]1C2CCN(CC2)[C@H]1C(c1ccccc1)c1ccccc1 ?
No

Total Cell Count >= 200 for Cc1nc(N2CC[C@H](O)C2)ncc1-c1cc(C(F)(F)F)cc2[nH]ncc12 ?
Yes

Total Cell Count >= 200 for COc1cc2ncn(-c3cc(OCc4ccccc4C(F)(F)F)c(C(N)=O)s3)c2cc1OC [GW843682X] ?
Yes
